Origin of the recorded values: patent US20080090805A1

system: CB1 (mutant) (Homo sapiens)
test.description: R-SAT functional receptor assay, CB1 (mutant, truncated after amino acid 417)
Assay type: cell-based
experimental.conditions: Appendix A; R-SAT CB1; receptor form not stated; relative to SR141716 (100%); read-out: % Inhibition
metric: Emax (%)
Field: numeric (%). Do not append units.

>  <molecule>
O=C(NCCc1ccccn1)c1ccc2c(c1)N=C(c1ccc(Br)cc1)c1ccccc1S2 [drawing 734]

>  <metric>
Emax

>  <readout.number>
89

$$$$

Item O=C(NCc1ccccn1)c1ccc2c(c1)N=C(c1ccc(Br)cc1)c1ccccc1S2 [drawing 612] : provide Emax
90

Item CN1c2ccc(C(=O)NCc3ccc(F)cc3)cc2N=C(c2ccc(F)cc2)c2ccccc21 [drawing 752] : provide Emax
91

Item CCCCNS(=O)(=O)c1ccc2c(c1)N=C(c1ccc(Cl)cc1)c1ccccc1S2 [drawing 875] : provide Emax
106

Item CC(CNC(=O)c1ccc2c(c1)N=C(c1ccc(F)cc1)c1ccccc1S2)c1ccccc1 (stereo not shown) [drawing 639] : provide Emax
98

Item `CCCCN(C)C(=O)c1ccc2c(c1)N=C(c1ccc(F)cc1)c1ccccc1S2` : provide Emax
107

Item O=C(NN1CCCCC1)c1ccc2c(c1)NC(C1CCCCC1)c1ccccc1S2 (stereo not shown) : provide Emax
43

Item CCCC1=Nc2cc(C(=O)NC(C)c3ccccc3)ccc2Sc2ccccc21 (stereo not shown) : provide Emax
97

Item `CCCCC(=O)c1ccc2c(c1)N=C(C1CCCCC1)c1ccccc1S2` : provide Emax
37

Item `CCONC(=O)c1ccc2c(c1)N=C(c1ccc(Cl)cc1)c1ccccc1S2` : provide Emax
91

---

system: native CB1 receptors (Rattus norvegicus)
Sequence (P20272 whole entry): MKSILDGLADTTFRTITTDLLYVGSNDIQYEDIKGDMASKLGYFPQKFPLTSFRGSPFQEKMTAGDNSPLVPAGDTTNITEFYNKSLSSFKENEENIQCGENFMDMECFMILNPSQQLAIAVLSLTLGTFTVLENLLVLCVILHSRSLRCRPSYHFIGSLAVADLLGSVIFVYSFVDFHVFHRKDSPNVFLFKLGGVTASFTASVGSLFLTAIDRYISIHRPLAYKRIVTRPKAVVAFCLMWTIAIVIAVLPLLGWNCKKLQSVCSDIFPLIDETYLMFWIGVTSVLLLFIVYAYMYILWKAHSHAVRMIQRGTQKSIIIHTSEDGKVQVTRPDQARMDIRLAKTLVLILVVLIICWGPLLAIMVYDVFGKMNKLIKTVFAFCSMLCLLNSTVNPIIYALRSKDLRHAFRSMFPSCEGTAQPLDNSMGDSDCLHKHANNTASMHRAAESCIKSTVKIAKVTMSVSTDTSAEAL
test.description: CB1 receptor rat binding assay ([3H]SR141716A, rat brain membranes)
experimental.conditions: rat brain membranes, [3H]SR141716A; read-out: Binding rat pKi (converted)
metric: Ki (µM)
Field: numeric (µM). Do not append units.

Consider the following illustrative entries.
>  <compound>
O=C(NC1CCC(F)(F)CC1)c1ccc2c(c1)N=C(c1ccc(Cl)cc1)c1ccccc1S2

>  <metric>
Ki

>  <readout.unit>
µM

>  <readout.number>
0.00251

$$$$
>  <compound>
CCCCNC(=O)c1ccc2c(c1)N=C(c1cccc(F)c1)c1ccccc1S2 [drawing 1498]

>  <metric>
Ki

>  <readout.unit>
µM

>  <readout.number>
0.01

$$$$
>  <compound>
Cc1csc(CNC(=O)c2ccc3c(c2)N=C(c2sccc2C)c2ccccc2S3)c1 [drawing 1255]

>  <metric>
Ki

>  <readout.unit>
µM

>  <readout.number>
0.001

$$$$

Item O=C(NC1CCCCC1)c1ccc2c(c1)N=C(c1ccccn1)c1ccccc1S2 [drawing 1537] : provide Ki
0.1

Item CCCNC(=O)c1ccc2c(c1)N=C(c1sccc1C)c1ccccc1S2 [drawing 1387] : provide Ki
0.0316

---

Some compounds, each annotated with its measured Ki.
system: native CB1 receptors (Rattus norvegicus)
test.description: CB1 receptor rat binding assay ([3H]SR141716A, rat brain membranes)
experimental.conditions: rat brain membranes, [3H]SR141716A; read-out: Binding rat pKi (converted)
Field: numeric (nM). Do not append units.

Consider the following illustrative entries.
>  <compound>
O=C(NCc1cccc(Cl)c1)c1ccc2c(c1)N=C(c1ccccc1F)c1ccccc1S2 [drawing 1510]

>  <Ki, nM>
10

$$$$
>  <compound>
O=C(NC1CCC(F)(F)CC1)c1ccc2c(c1)N=C(c1ccc(F)cc1)c1ccccc1S2 [drawing 1258]

>  <Ki, nM>
1.26

$$$$
>  <compound>
O=C(NCCc1ccc(Cl)cc1)c1ccc2c(c1)N=C(N1CCC(F)CC1)c1ccccc1S2 [drawing 1195]

>  <Ki, nM>
12.6

$$$$
>  <compound>
CC(C)CNC(=O)c1ccc2c(c1)N=C(c1ccc(Cl)cc1F)c1ccccc1S2 [drawing 1199]

>  <Ki, nM>
5.01

$$$$
>  <compound>
Cc1ccsc1C1=Nc2cc(C(=O)NC3CCC(F)(F)CC3)ccc2Sc2ccccc21 [drawing 1265]

>  <Ki, nM>
1.58

$$$$
>  <compound>
O=C(NCc1ccco1)c1ccc2c(c1)N=C(c1ccc(Cl)c(Cl)c1)c1ccccc1S2 [drawing 1402]

>  <Ki, nM>
6.31

$$$$

Item Cc1ccsc1C1=Nc2cc(C(=O)NCC(C)C)ccc2Sc2ccccc21 [drawing 1516] : provide Ki
10

Item O=C(NCc1ccccc1Cl)c1ccc2c(c1)N=C(N1CCCCC1)c1ccccc1S2 [drawing 1366] : provide Ki
31.6

Item O=C(NNCC(F)(F)F)c1ccc2c(c1)N=C(c1ccc(Cl)cc1)c1ccccc1S2 [drawing 1488] : provide Ki
10

Item O=C(NCc1ccccc1Cl)c1ccc2c(c1)N=C(C1CCCCC1)c1ccccc1S2 [drawing 1491] : provide Ki
10

Item CC(NC(=O)c1ccc2c(c1)N=C(c1ccccc1)c1ccccc1S2)c1ccccc1 (centres unmarked) [drawing 1379] : provide Ki
31.6

Item CC(C)NC(=O)c1ccc2c(c1)N=C(c1ccc(Cl)cc1)c1ccccc1S2 [drawing 1372] : provide Ki
31.6

Item O=C(NCc1cccs1)c1ccc2c(c1)N=C(c1ccc(F)cc1)c1ccccc1S2 [drawing 1178] : provide Ki
1.58

Item CCCNC(=O)c1ccc2c(c1)N=C(c1ccc(Cl)s1)c1ccccc1S2 [drawing 1236] : provide Ki
15.8

Item `CCC1=Nc2cc(C(=O)NCCc3ccc(OC)c(OC)c3)ccc2Sc2ccccc21` : provide Ki
63.1

Item O=C(NCCc1ccccn1)c1ccc2c(c1)N=C(c1ccc(Cl)cc1)c1ccccc1S2 [drawing 1340] : provide Ki
25.1

Item O=C(NCc1ccc(F)cc1)c1ccc2c(c1)N=C(c1ccc(Cl)cc1)c1ccccc1S2 [drawing 1287] : provide Ki
2

Item CC(C)CNC(=O)c1ccc2c(c1)N=C(c1ccc(Cl)cc1)c1ccc(Cl)cc1S2 [drawing 1525] : provide Ki
10

Item CCN(CCNC(=O)c1ccc2c(c1)N=C(c1ccc(Cl)cc1)c1ccccc1S2)c1ccccc1 [drawing 1489] : provide Ki
10

Item C[C@@H]1CCC[C@H](C)N1NC(=O)c1ccc2c(c1)N=C(c1ccc(Cl)cc1)c1ccccc1S2 [drawing 1396] : provide Ki
39.8

Item Cc1ccsc1C1=Nc2cc(C(=O)NCCC(C)C)ccc2Sc2ccccc21 [drawing 1251] : provide Ki
15.8

Item C[C@@H]1CCC[C@H](C)N1NC(=O)c1ccc2c(c1)N=C(c1ccccc1F)c1ccccc1S2 [drawing 1495] : provide Ki
63.1

Item CCCNC(=O)c1ccc2c(c1)N=C(c1cccc(Cl)c1)c1ccccc1S2 [drawing 1189] : provide Ki
12.6

Item Cc1ccc(CNC(=O)c2ccc3c(c2)N=C(c2ccc(Cl)cc2F)c2ccccc2S3)o1 [drawing 1441] : provide Ki
7.94

---

system: native CB1 receptors (Rattus norvegicus)
test.description: CB1 receptor rat binding assay ([3H]SR141716A, rat brain membranes)
experimental.conditions: rat brain membranes, [3H]SR141716A; read-out: Binding rat pKi (converted)
metric: Ki (nM)
Field: numeric (nM). Do not append units.

Consider the following illustrative entries.
>  <molecule>
O=C(NC1CCCC1)c1ccc2c(c1)N=C(c1ccc(Cl)s1)c1ccccc1S2 [drawing 1542]

>  <readout.number>
12.6

$$$$
>  <molecule>
O=C(NN1CCCCC1)c1ccc2c(c1)N=C(c1ccc(Br)cc1)c1ccccc1S2 [drawing 1423]

>  <readout.number>
6.31

$$$$
>  <molecule>
O=C(NN1CCCCC1)c1ccc2c(c1)N=C(c1ccc(F)cn1)c1ccccc1S2 [drawing 1494]

>  <readout.number>
63.1

$$$$
>  <molecule>
CCOCCNC(=O)c1ccc2c(c1)N=C(c1ccc(F)cc1)c1ccccc1S2 [drawing 1446]

>  <readout.number>
50.1

$$$$
>  <molecule>
O=C(NN1CCCCCC1)c1ccc2c(c1)N=C(c1cccc(Cl)c1)c1ccccc1S2 [drawing 1209]

>  <readout.number>
2

$$$$

Item Cc1ccsc1C1=Nc2cc(C(=O)NCCC(F)(F)F)ccc2Sc2ccccc21 [drawing 1198] : provide Ki
12.6

Item CC(C)CNC(=O)c1ccc2c(c1)N=C(c1ccc(Cl)c(Cl)c1)c1ccccc1S2 [drawing 1192] : provide Ki
1.58

Item O=C(NN1CCCCC1)c1ccc2c(c1)N=C(c1ccc(Cl)s1)c1ccccc1S2 [drawing 1385] : provide Ki
5.01

Item CC(C)NC(=O)c1ccc2c(c1)N=C(c1cccc(Cl)c1)c1ccccc1S2 [drawing 1269] : provide Ki
20

Item O=C(NCc1ccccc1)c1ccc2c(c1)N=C(N1CCCCC1)c1ccccc1S2 [drawing 1253] : provide Ki
15.8

Item Cc1cnc(-c2ccc3c(c2)N=C(c2ccc(Cl)cc2)c2ccccc2S3)[nH]1 [drawing 1371] : provide Ki
31.6

---

Some molecules, each annotated with its measured Emax.
system: CB1 (mutant) (Homo sapiens, UniProt P21554)
Sequence (P21554 1-417, change not shown): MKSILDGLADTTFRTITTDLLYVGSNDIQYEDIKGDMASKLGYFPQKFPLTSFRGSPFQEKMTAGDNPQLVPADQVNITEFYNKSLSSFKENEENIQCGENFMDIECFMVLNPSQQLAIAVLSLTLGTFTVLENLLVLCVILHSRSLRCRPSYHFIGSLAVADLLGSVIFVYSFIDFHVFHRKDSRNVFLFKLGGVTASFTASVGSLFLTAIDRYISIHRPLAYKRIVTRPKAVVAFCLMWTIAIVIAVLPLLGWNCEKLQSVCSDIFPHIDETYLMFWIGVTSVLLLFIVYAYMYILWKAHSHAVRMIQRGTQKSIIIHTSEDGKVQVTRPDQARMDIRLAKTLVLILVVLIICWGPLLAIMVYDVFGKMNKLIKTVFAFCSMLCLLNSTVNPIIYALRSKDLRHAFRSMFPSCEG
test.description: R-SAT functional receptor assay, CB1 (mutant, truncated after amino acid 417)
Type: cell-based
experimental.conditions: Appendix A; R-SAT CB1; receptor form not stated; relative to SR141716 (100%); read-out: % Inhibition
Field: numeric (%). Do not append units.

Consider the following illustrative entries.
>  <molecule>
CCCC1=Nc2cc(C(=O)NCCCN3CCCCC3CC)ccc2Sc2ccccc21 (stereo not shown)

>  <Emax (%)>
128

$$$$
>  <molecule>
CC(NC(=O)c1ccc2c(c1)N=C(c1ccc(F)cc1)c1ccccc1S2)c1ccccc1 (stereo not shown) [drawing 760]

>  <Emax (%)>
81

$$$$
>  <molecule>
O=C(NCCCC(F)(F)F)c1ccc2c(c1)N=C(c1ccccn1)c1ccccc1S2 [drawing 871]

>  <Emax (%)>
117

$$$$
>  <molecule>
O=C(NCc1cccs1)c1ccc2c(c1)N=C(c1cccc(Cl)c1)c1ccccc1S2 [drawing 573]

>  <Emax (%)>
108

$$$$

Item `O=C(NC1CCCC1)c1ccc2c(c1)N=C(c1ccc(Cl)cc1Cl)c1ccccc1S2` : provide Emax
52

Item `O=C(NN1CCCCCC1)c1ccc2c(c1)N=C(c1sccc1Cl)c1ccccc1S2` : provide Emax
82

Item O=C(NCCc1ccc(Cl)cc1)c1ccc2c(c1)N=C(c1ccccc1)c1ccccc1S2 [drawing 733] : provide Emax
108

Item O=C(NN1CCCCCC1)c1ccc2c(c1)N=C(c1cccc(Cl)c1)c1ccccc1S2 [drawing 597] : provide Emax
95

Item `CCCCN(C)C(=O)c1ccc2c(c1)N=C(c1ccccc1F)c1ccccc1S2` : provide Emax
77

Item O=C(NNCc1ccccc1)c1ccc2c(c1)N=C(c1cccc(Br)c1)c1ccccc1S2 [drawing 928] : provide Emax
86

Item O=C(NCc1cccc(Cl)c1)c1ccc2c(c1)N=C(N1CCC(F)CC1)c1ccccc1S2 [drawing 679] : provide Emax
108

Item `CCCC1=Nc2cc(C(=O)NCCCOCC)ccc2Sc2ccccc21` : provide Emax
92

Item `COCCNC(=O)c1ccc2c(c1)N=C(c1ccc(Cl)cc1F)c1ccccc1S2` : provide Emax
104

Item CC(C)CNC(=O)c1ccc2c(c1)N=C(c1ccccn1)c1ccccc1S2 [drawing 1021] : provide Emax
96

Item Cc1ccc(CNC(=O)c2ccc3c(c2)N=C(c2sccc2C)c2ccccc2S3)o1 [drawing 953] : provide Emax
79

Item `CCCC1=Nc2cc(C(=O)NCCOC)ccc2Sc2ccccc21` : provide Emax
107

Item O=C(NCCc1ccccc1)c1ccc2c(c1)N=C(c1ccccc1F)c1ccccc1S2 [drawing 600] : provide Emax
98

Item O=C(NC1CCCCC1)c1ccc2c(c1)N=C(c1ccccc1F)c1ccccc1S2 [drawing 740] : provide Emax
109

Item CCCNC(=O)c1ccc2c(c1)N=C(c1cccc(F)c1)c1ccccc1S2 [drawing 893] : provide Emax
109

Item CCCCNC(=O)c1ccc2c(c1)N=C(c1ccc(F)cc1)c1ccccc1S2 [drawing 785] : provide Emax
96

Item CC(CNC(=O)c1ccc2c(c1)N=C(c1cccc(Cl)c1)c1ccccc1S2)c1ccccc1 (stereo not shown) [drawing 587] : provide Emax
112

Item CCCNC(=O)c1ccc2c(c1)N=C(c1ccc(OC)cc1)c1ccccc1S2 [drawing 915] : provide Emax
112
